# protocolDescription: Half life of mutual prodrug in reaction buffer only (pH 7.4 tris/Mg2+/Zn2+)
# Assay type: physicochemical
# cond: reaction buffer without alkaline phosphatase; reaction buffer pH 7.4, no ALP; Table 1b
measurementKind: half-life (h)
All answers are understood in h, so give the number only.

Data request: Fill in the blank: the reported half-life of CC(C)Cn1ncc2cc(Oc3ccc(F)cc3F)c(C(=O)NCC[N+](C)(C)Cc3cc(C(O)CNCCCCCCOCCCCc4ccccc4)ccc3OP(=O)(O)O)cc21 (stereo not shown) is ____.
Data returned: 57.8

* * *

# measuredTarget: alkaline phosphatase (Homo sapiens)
# Sequence (P05187 23-506): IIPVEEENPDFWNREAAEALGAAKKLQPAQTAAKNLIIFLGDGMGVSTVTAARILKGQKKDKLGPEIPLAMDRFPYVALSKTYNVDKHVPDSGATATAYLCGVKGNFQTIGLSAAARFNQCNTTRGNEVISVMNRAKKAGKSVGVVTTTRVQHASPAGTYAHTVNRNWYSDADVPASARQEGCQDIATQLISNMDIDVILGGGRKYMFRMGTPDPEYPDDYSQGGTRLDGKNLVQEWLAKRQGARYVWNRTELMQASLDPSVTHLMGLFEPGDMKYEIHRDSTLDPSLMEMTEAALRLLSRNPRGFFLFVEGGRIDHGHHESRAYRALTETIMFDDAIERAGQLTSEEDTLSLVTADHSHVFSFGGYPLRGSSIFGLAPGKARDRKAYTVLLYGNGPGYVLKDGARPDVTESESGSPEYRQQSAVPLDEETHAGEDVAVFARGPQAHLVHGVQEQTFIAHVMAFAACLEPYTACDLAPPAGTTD
# protocolDescription: Conversion of mutual prodrugs to salmeterol and AISTM drug after exposure to alkaline phosphatase in vitro (LCMS)
# Assay type: in vitro ADME
# cond: human, alkaline phosphatase (Sigma P-3895) in reaction buffer, pH 7.4, ALP Enzyme Conc. 0.443 mg/mL; Table 2b; first order kinetics assumed; read-out: Half Life t1/2
measurementKind: half-life at 0.1 mg/mL (min)
All answers are understood in min, so give the number only.

Data request: Fill in the blank: the reported half-life at 0.1 mg/mL of COc1ccc([C@H](Cc2cc[n+](Cc3ccc(C(O)CNCCCCCCOCCCCc4ccccc4)cc3OP(=O)(O)O)cc2)c2ccccc2)cc1OC1CCCC1 (stereo in doubt) [Example 37] is ____.
Data returned: 24.6
